- measured on: CB2 receptor (Homo sapiens, UniProt P34972)
- Construct: expressed in transfected cells
- Sequence (P34972 whole entry): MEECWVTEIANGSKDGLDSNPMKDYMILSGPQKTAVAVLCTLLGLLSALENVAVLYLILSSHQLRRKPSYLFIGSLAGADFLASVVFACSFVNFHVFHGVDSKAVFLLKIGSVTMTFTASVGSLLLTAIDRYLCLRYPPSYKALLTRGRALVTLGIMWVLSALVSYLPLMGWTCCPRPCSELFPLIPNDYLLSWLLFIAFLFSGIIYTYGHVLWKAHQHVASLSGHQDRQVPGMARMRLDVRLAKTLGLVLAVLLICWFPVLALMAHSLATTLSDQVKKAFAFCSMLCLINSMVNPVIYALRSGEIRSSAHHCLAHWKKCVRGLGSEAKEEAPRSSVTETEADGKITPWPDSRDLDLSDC
- method description: Binding assay for CB2 agonists or inverse agonists (SK-N-MC membranes, [3H]-CP-55,940)
- condition: test concentration 1 μM (footnote 1); read-out: CB2 receptor binding percent inhibition
readout: inhibition at 1 µM (%)
One number for each entry, in %.

Here are 5 compounds together with their reported answers.
compound="C[C@H](NS(=O)(=O)/C=C/c1n[nH]c2c1CCCCC2Cc1cccc(F)c1)c1ccccc1 (some centres unmarked)" measurement_unit=% measured_number=94
compound="CC12CCC(C1)C(C)(C)[C@H]2NC(=O)c1nn(C2CCCCC2)c2c1CCCCC2Cc1cccc(F)c1 (some centres unmarked)" measurement_unit=% measured_number=75
compound="CC12CCC(C1)C(C)(C)[C@H]2NC(=O)c1nn(C2CCCCC2)c2c1CCCCC2Cc1ccc(F)cc1 (some centres unmarked)" measurement_unit=% measured_number=98
compound="O=C(NC1CCC1)c1nn(Cc2ccc(Cl)cc2)c2c1CCCCC2Cc1ccc(Cl)cc1 (centres unmarked)" measurement_unit=% measured_number=65
compound="CC12CCC(C1)C(C)(C)[C@H]2NC(=O)c1nn(-c2ccc(Cl)cc2Cl)c2c1CCCCC2Cc1cccc(F)c1 (some centres unmarked)" measurement_unit=% measured_number=52

Please look at the items below and tell me inhibition at 1 µM for each one, in order.
1. C[C@H](NC(=O)c1nn(C2CCCCC2)c2c1CCCCC2Cc1ccc(F)cc1)c1ccccc1 (some centres unmarked)
2. C[C@H](NS(=O)(=O)/C=C/c1nn(C)c2c1CCCCC2Cc1ccc(F)cc1)c1ccccc1 (some centres unmarked)
3. O=C(NCc1ccc(C(F)(F)F)cc1)c1nn(-c2ccc(Cl)cc2Cl)c2c1CCCCC2Cc1ccc(Cl)cc1 (centres unmarked)

Result:
70
97
35
